test system: Cryptococcus neoformans lysis, adenylate kinase release luminescence, 4 h; assay: fungal lysis via adenylate kinase leakage – AK release luminescence, dry powder, dose response (AID 743159)
The source made the active and inactive calls.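 The calls were made as follows: active = fitted curve reaches a 40% rise in lysis activity at or below the top valid tested dose; inconclusive = flat curve holding a 30 to 70% rise, or poor fit; inactive = signal moving opposite to the expected rise, and the rest.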
Permitted responses: Yes (active), No (inactive)

[[record]]
compound = "COC(=O)C1=C(C)N(Cc2ccccc2)C(=S)NC1c1ccc(Br)cc1 (stereo not drawn)"
label_class = "Yes"


Name the outcome recorded for `c1ccc(OCCn2cnc3ccccc32)cc1` in the assay.
No

Name the outcome recorded for `CCOc1ccc(OCCn2c(=S)[nH]c3ccccc32)cc1` in the assay.
Yes

====

test system: Cryptococcus neoformans lysis, adenylate kinase release luminescence, 4 h; experiment: fungal lysis via adenylate kinase leakage – AK release luminescence, dry powder, dose response (AID 743159)
The source made the active and inactive calls.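 The calls were made as follows: active = fitted curve reaches a 40% rise in lysis activity at or below the top valid tested dose; inconclusive = flat curve holding a 30 to 70% rise, or poor fit; inactive = signal moving opposite to the expected rise, and the rest.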
Permitted responses: active, inactive

[[record]]
molecule = "Fc1ccccc1OCCn1c(=S)[nH]c2ccccc21"
label_class = "active"

[[record]]
molecule = "CCOC(=O)c1c(-c2ccc(C(C)(C)C)cc2)csc1NC(=O)CN1CCN(CC)CC1"
label_class = "active"

[[record]]
molecule = "CCOC(=O)c1c(-c2ccc(C(C)(C)C)cc2)csc1NC(=O)CN1CCN(C)CC1"
label_class = "active"

[[record]]
molecule = "Cc1ccc(OCCn2c(=S)[nH]c3ccccc32)cc1"
label_class = "active"

[[record]]
molecule = "Cc1ccc2c(c1)[nH]c(=S)n2CCOc1ccccc1"
label_class = "active"

[[record]]
molecule = "CCOC(=O)c1c(-c2ccc(-c3ccccc3)cc2)csc1NC(=O)CNCCN(C)C"
label_class = "active"

[[record]]
molecule = "COC(=O)C1=C(C)N(Cc2ccc(F)cc2)C(=S)NC1c1cccc(F)c1 (stereo not given)"
label_class = "active"

[[record]]
molecule = "COC(=O)C1=C(C)N(Cc2ccc(Br)cc2)C(=S)NC1c1ccc(F)cc1 (stereo not given)"
label_class = "active"


Name the outcome recorded for `CCOC(=O)c1c(-c2ccc(F)cc2)csc1NC(=O)CN1CCN(C)CC1` in the assay.
inactive

Name the outcome recorded for `Cc1ccc(OCCn2cnc3ccccc32)cc1` in the assay.
active

Name the outcome recorded for `S=c1[nH]c2ccccc2n1CCOc1ccccc1` in the assay.
active

Name the outcome recorded for COC(=O)C1=C(C)N(Cc2ccc(Br)cc2)C(=S)NC1c1ccc(OC)cc1 (stereo not given) in the assay.
active

Name the outcome recorded for `Cc1ccc(C(C)C)c(OCCn2c(=S)[nH]c3ccccc32)c1` in the assay.
active

Name the outcome recorded for `Fc1cccc2c1[nH]c(=S)n2CCOc1ccccc1` in the assay.
active

Name the outcome recorded for `Cc1ccc(OCCn2c(C)nc3ccccc32)cc1` in the assay.
active

Name the outcome recorded for `S=c1[nH]c2ccccc2n1CCOc1ccc(Cl)cc1` in the assay.
active

Name the outcome recorded for `S=c1[nH]c2cccc(Cl)c2n1CCOc1ccccc1` in the assay.
active

Name the outcome recorded for `Cc1cccc(OCCn2c(=S)[nH]c3cc(C(F)(F)F)ccc32)c1` in the assay.
active

Name the outcome recorded for COC(=O)C1=C(C)N(Cc2ccc(Cl)cc2)C(=S)NC1c1ccc(Br)cc1 (stereo not given) in the assay.
active

Name the outcome recorded for `Cc1ccccc1OCCn1c(=S)[nH]c2ccccc21` in the assay.
active
